Hey, just so you know, these numbers are from paper PMC4506051.

PROTOCOL TEXT: Exploratory trial: ingredients in β-glucuronidase (enzyme)-treated urine
Assay type: in vivo, human
ASSAY SETUP: β-glucuronidase-treated; preadministration; mean ± S.D., n = 4
Listing: Amount in enzyme-treated urine, Pre of selected molecules
Quick reminder: number only, in ng, skip the unit.

COc1c(CC=C(C)C)c(O)cc2oc(=O)c(-c3ccc(O)cc3O)cc12 = 22.8

I would be grateful if you could share the reported Amount in enzyme-treated urine, Pre for CCCCCCC[C@H](O)CC(=O)CCc1ccc(O)c(OC)c1 [[8]-Gingerol, [8]-Gingerol] .
2.73

For CCCCC/C=C/C(=O)CCc1ccc(O)c(OC)c1 [[6]-Shogaol, [6]-Shogaol] , what is its reported Amount in enzyme-treated urine, Pre?
109

For CCCCCCC/C=C/C(=O)CCc1ccc(O)c(OC)c1 [[8]-Shogaol, [8]-Shogaol] , what is its reported Amount in enzyme-treated urine, Pre?
3.73

Query: Amount in enzyme-treated urine, Pre; subject: O=C(/C=C/c1ccc(O)cc1)c1ccc(O)cc1O
16.0

====

PROTOCOL TEXT: Exploratory trial: plasma concentration of rikkunshito ingredients after single oral rikkunshito 7.5 g
Assay type: in vivo
ASSAY SETUP: 4 h after single oral rikkunshito 7.5 g; mean ± S.D., n = 4
MEASURED QUANTITY: Plasma concentration, 4 h

// below: answered molecules
CNCC(O)c1ccc(O)cc1 (centres unmarked) [Synephrine] = BQL
CC(C)=CCC[C@](C)(O[C@@H]1O[C@H](CO)[C@@H](O)[C@H](O)[C@H]1O)[C@H]1CC[C@]2(C)[C@@H]1[C@H](O)C[C@@H]1[C@@]3(C)CC[C@H](O[C@@H]4O[C@H](CO)[C@@H](O)[C@H](O)[C@H]4O[C@@H]4O[C@H](CO)[C@@H](O)[C@H](O)[C@H]4O)C(C)(C)[C@@H]3CC[C@]12C [Ginsenoside Rd] = BQL
O=C(/C=C/c1ccc(O)cc1)c1ccc(O)cc1O = BQL
COc1c(CC=C(C)C)c(O)cc2oc(=O)c(-c3ccc(O)cc3O)cc12 = BQL
C[C@@H]1O[C@@H](O[C@H]2[C@H](Oc3cc(O)c4c(c3)O[C@H](c3ccc(O)cc3)CC4=O)O[C@H](CO)[C@@H](O)[C@@H]2O)[C@H](O)[C@H](O)[C@H]1O = BQL

Name the recorded Plasma concentration, 4 h for O=C1C[C@@H](c2ccc(O[C@@H]3O[C@H](CO)[C@@H](O)[C@H](O)[C@H]3O)cc2)Oc2cc(O)ccc21 .
0.114 ± 0.0392 ng/mL

I am curious: what Plasma concentration, 4 h value has been reported for C=C(CC[C@@H](C(=O)O)[C@H]1[C@H](O)C[C@@]2(C)C3=C(CC[C@]12C)[C@@]1(C)CC[C@H](OC(C)=O)C(C)(C)[C@@H]1CC3)C(C)C ?
0.0905 ± 0.181 ng/mL

Please look up its Plasma concentration, 4 h: COc1ccc(-c2cc(=O)c3c(OC)c(OC)c(OC)c(OC)c3o2)cc1OC
BQL

====

PROTOCOL TEXT: clinical
ASSAY SETUP: human, in vivo, po, C max, rikkunshito 2.5 g single oral, n = 21; geometric mean (95% CI)
MEASURED QUANTITY: Cmax
Value and unit, in that order.

State the recorded Cmax for this entry: C=C(CC[C@@H](C(=O)O)[C@H]1[C@H](O)C[C@@]2(C)C3=C(CC[C@]12C)[C@@]1(C)CC[C@H](OC(C)=O)C(C)(C)[C@@H]1CC3)C(C)C [Pachymic acid]
0.0363 ng/mL
